study system: Fes (UniProt P07332)
Sequence (P07332 whole entry, looked up): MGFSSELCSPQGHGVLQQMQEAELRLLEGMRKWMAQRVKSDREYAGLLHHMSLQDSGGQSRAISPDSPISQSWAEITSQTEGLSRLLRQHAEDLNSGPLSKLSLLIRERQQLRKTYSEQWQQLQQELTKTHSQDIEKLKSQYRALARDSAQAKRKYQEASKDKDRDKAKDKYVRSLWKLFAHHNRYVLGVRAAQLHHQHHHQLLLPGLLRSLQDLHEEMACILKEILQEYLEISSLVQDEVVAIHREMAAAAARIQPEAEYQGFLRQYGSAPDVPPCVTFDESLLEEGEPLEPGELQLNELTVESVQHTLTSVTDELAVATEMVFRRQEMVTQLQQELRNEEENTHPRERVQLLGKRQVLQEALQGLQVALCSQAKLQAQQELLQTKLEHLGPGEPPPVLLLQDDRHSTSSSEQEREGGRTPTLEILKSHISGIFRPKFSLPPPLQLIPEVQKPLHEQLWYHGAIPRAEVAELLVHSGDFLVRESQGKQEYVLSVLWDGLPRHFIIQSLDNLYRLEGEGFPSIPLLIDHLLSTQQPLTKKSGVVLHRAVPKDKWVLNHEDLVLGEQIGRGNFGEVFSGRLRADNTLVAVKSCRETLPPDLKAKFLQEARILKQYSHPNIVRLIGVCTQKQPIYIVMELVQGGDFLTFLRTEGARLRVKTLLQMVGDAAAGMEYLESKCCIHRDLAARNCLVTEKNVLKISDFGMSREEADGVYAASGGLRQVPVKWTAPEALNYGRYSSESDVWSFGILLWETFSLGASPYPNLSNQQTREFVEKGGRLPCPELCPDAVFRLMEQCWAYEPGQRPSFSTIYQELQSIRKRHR
assay info: phosphorylation enrichment, bacterial display (enrichment ratio); higher = better substrate or ligand; peptides without Tyr show the background;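 further: 11-residue human phosphosite peptides and single-mutation variants displayed on the E. coli surface, counted by deep sequencing, each peptide's frequency after selection divided by its frequency in the unselected input library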;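 further: frequency after pTyr selection over input frequency; kinase dosed for 20-30% of maximal phosphorylation in three min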
metric name: phosphorylation enrichment
Answer with the value's number alone.

ARMTNCGLPRY [TSPAN12_Y138_Y138C]
0.602
VVTFSYKPPGN [RBL2_Y544]
0.696
IGEGTYGVLYK [CDK2_Y15_V18L]
1.04
FQLPFYNTVPS [BMPR1A_Y458_M460T_YF]
0.828
ADKSAYLMGLN [MYH7_Y386]
0.671
HNVPICEGFAL [ACTC1_Y168_Y168C_YF]
1.29
SILTVYSKDNY [PANK2_Y400_A398T]
0.91
KNITEYCRDLI [RECQL_Y492]
1.05
SPPILYSFYLD [FCRL6_Y239]
1.05
RIVRKYKKVRF [F8_Y442_G439V]
0.78

Value of measured phosphorylation enrichment for the entry GRRNTCFASIA [ACADM_Y352_Y352C_YF] : 0.691

Value of phosphorylation enrichment reported for the sequence YTDPYYDYEIE [ZC3H18_Y372_A368T] is 1.27

Recorded result, VNYGAYINDFN [GLB1_Y488_K493N] , phosphorylation enrichment: 1

So for MAFDRYVAICS [OR8D4_Y123_C120Y_YF] , the logged phosphorylation enrichment turned out to be 1.14

====

Test system: Fer (mouse)
assay info: phosphorylation enrichment, bacterial display (enrichment ratio); higher = better substrate or ligand; peptides without Tyr show the background
metric name: phosphorylation enrichment
Write the number on its own, no unit after it.

Use these answered entries as a reference point.
DLRTGYSVPYG [TGM1_Y370_Y365D]
0.456
QMQAAYQKAVA [HBD_Y131_V134A]
0.405

Noted for AAFNRYDQERF [CDC73_Y293_YF] : its phosphorylation enrichment reads 0.463

Looking up DSFATYFRWVL [H2BW1_Y84_R87W] , I found its phosphorylation enrichment recorded as 2.46

====

Quick list: phosphorylation enrichment per entry.
Tested on: AncSZ
assay info: phosphorylation enrichment, bacterial display (enrichment ratio); higher = better substrate or ligand; peptides without Tyr show the background
API note: the answer field is a bare number with no unit suffix.

Please review the entries below; each comes with its answer.
LSERGYSFVTT [ACTA2_Y200_T196S]
1.29
FEELVYETVRV [FSHB_Y76_K72E]
3.82
LEVETYRRLLD [KRT12_Y429_I426V]
0.676
CTLNVYRQLHN [LUZP1_Y1036_S1034N]
1.05
DYTEAYNPKIK [CLK1_Y305]
1.02
HVPEEYKPKQG [SAXO2_Y37]
0.827

phosphorylation enrichment for TSYSGYRYHRH [NKAPL_Y94] is 0.52

# phosphorylation enrichment (sequence: LIYTNYEAGKD [GSTP1_Y112] ) is 1.23

phosphorylation enrichment reported for this sequence HSQEDYFECFQ [ZIM2_Y411] : 3.08

Input RTCSSYTIEKI [PARP15_Y520_A521T] . Output phosphorylation enrichment: 0.937

# phosphorylation enrichment (sequence: MEVGQYIFVKC [CYBB_Y324] ) is 1.74

Sure, the documented phosphorylation enrichment for SRVTQYERDFE [SNX1_Y463] is 0.837

Memo: SSNLYYRWLTA [CNGA3_Y169] , reported phosphorylation enrichment: 1.04

Lab book: phosphorylation enrichment of HHIDFYKETTN [FGFR1_Y654_K656E_YF] noted as 1.07

The recorded phosphorylation enrichment for entry LNLKEYNLVGG [GNAQ_Y356] equals 1.23

Noted for QGIFGYHHHMQ [UFSP2_Y287_Y290H_YF] : its phosphorylation enrichment reads 0.941

The measured phosphorylation enrichment associated with LEPHIYAVADV [MYO9A_Y216] reads 0.926

Measured phosphorylation enrichment of FASALYGQRRS [FGF11_Y162_R163G_YF] : 0.724

====

System: Fer (mouse)
assay info: phosphorylation enrichment, bacterial display (enrichment ratio); higher = better substrate or ligand; peptides without Tyr show the background
Hi, to clarify the labels: Y covers phosphorylation enrichment from 0.5 upward, N covers anything below 0.5.

GKFFQYDTWKQ [IGF2_Y116]
N
RGESFYQDRMN [RARS_Y338]
Y
NLMPAYFKCIQ [CYP21A2_Y190_YF]
Y
AEQDCYHGAIP [FER_Y461_W460C]
N
NPETCYQRLKK [TK2_Y190]
N
HNLFSYPTKHE [MYO3A_Y1396_YF]
Y
HAKKNYGNSSV [HDX_Y197]
N
IPKTWYSAEQF [CD207_Y217]
N

Now turn to the next sequence.
Check the entry FLRTGYSIPFG [TGM1_Y370_V372I_YF] : does phosphorylation enrichment equal or exceed 0.5? N

====

study system: EPHB1 (UniProt P54762)
Sequence (P54762 whole entry, looked up): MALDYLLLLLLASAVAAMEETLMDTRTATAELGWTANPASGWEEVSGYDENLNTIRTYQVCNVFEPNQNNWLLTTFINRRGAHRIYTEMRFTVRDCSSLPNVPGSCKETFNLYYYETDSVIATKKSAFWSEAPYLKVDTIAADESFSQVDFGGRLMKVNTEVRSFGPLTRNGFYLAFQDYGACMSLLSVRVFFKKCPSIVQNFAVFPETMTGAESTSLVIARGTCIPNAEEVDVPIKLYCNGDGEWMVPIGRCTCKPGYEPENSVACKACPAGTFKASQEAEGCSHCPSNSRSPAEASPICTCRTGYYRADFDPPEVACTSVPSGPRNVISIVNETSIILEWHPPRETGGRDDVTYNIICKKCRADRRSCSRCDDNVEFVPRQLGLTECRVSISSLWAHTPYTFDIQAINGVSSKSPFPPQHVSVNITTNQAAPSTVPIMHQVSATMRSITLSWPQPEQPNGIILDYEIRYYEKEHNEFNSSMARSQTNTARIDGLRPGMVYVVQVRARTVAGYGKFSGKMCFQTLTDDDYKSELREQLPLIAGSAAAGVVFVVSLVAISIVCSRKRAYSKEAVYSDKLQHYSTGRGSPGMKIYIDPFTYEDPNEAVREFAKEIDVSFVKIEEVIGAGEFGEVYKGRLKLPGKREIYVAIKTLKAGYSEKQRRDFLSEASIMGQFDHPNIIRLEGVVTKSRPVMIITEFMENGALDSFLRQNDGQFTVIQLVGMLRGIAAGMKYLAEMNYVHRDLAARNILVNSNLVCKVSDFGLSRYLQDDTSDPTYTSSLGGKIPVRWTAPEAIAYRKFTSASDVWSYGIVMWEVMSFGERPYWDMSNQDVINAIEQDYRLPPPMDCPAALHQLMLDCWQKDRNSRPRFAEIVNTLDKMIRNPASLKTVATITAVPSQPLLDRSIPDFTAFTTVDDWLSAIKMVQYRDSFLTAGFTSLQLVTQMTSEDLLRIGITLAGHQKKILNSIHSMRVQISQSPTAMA
assay info: phosphorylation enrichment, bacterial display (enrichment ratio); higher = better substrate or ligand; peptides without Tyr show the background
# if value of phosphorylation enrichment reaches 0.5, tag t; if it stays below, tag f

Check this sequence for phosphorylation enrichment at or above 0.5: GDYYRYLAEVA [YWHAG_Y133] t

Exam item: decide whether the reported phosphorylation enrichment for QNTADYFDLFG [PTPN11_Y62_G60A_YF] is at least 0.5. t

Does NPETCYQRLKK [TK2_Y190] have a reported phosphorylation enrichment of at least 0.5? t

Is reported phosphorylation enrichment greater than or equal to 0.5 here: RRIHSYRSHLW [VHL_Y112_G114S] t

Please check the record FSNVLYRPRGA [TMIGD2_Y197_YF] and state if its phosphorylation enrichment is at or above 0.5. f

Entry ADRTRYSAFGG [RBM4_Y361_A359T] : is its phosphorylation enrichment no less than 0.5? f

# check: phosphorylation enrichment of RLLVVYPWTQR [HBB_Y36] is greater than or equal to 0.5 t

====

Tested on: AncSZ
assay info: phosphorylation enrichment, bacterial display (enrichment ratio); higher = better substrate or ligand; peptides without Tyr show the background
# cutoff 0.9 applies to phosphorylation enrichment; >= gives fulfilled, < gives not fulfilled

Example entries begin here.
LVSCTYQLARR [FGFR2_Y608_G613R]
fulfilled
AEQDCYHGAIP [FER_Y461_W460C]
not fulfilled
LSGFCYRLSDQ [PDCD6_Y124_G123C]
fulfilled
RLDRSYSFSFS [PEAR1_Y890_YF]
fulfilled
HNQDDYSFPSR [LDLR_Y845_G844D_YF]
fulfilled

Has SQETFYRVSNM [ABCD1_Y181_Q178E_YF] a recorded phosphorylation enrichment greater than or equal to 0.9? not fulfilled

Decide: phosphorylation enrichment of NSRFTCKLEVK [USH2A_Y3747_Y3747C_YF] >= 0.9? fulfilled

API: above_or_equal(metric=phosphorylation enrichment, cutoff=0.9) for item GGCQEYTGAPF [NAXD_Y85_YF] fulfilled

API: above_or_equal(metric=phosphorylation enrichment, cutoff=0.9) for item LLSVAYKNVVR [YWHAZ_Y48_G53R] fulfilled

Kindly determine if phosphorylation enrichment recorded for EQMASYFGHSV [ITGA2B_Y319] is above or exactly 0.9. not fulfilled

Hello, I need to know if GQKVAYGGTGD [ALDH3A1_Y305] has measured phosphorylation enrichment not below 0.9. Thanks! not fulfilled

Check this sequence for phosphorylation enrichment at or above 0.9: KSLSQYLEMDK [CAGE1_Y438_V435L] not fulfilled

====

Entries and their phosphorylation enrichment values follow.
study system: Hck (UniProt P08631)
Sequence (P08631 whole entry, looked up): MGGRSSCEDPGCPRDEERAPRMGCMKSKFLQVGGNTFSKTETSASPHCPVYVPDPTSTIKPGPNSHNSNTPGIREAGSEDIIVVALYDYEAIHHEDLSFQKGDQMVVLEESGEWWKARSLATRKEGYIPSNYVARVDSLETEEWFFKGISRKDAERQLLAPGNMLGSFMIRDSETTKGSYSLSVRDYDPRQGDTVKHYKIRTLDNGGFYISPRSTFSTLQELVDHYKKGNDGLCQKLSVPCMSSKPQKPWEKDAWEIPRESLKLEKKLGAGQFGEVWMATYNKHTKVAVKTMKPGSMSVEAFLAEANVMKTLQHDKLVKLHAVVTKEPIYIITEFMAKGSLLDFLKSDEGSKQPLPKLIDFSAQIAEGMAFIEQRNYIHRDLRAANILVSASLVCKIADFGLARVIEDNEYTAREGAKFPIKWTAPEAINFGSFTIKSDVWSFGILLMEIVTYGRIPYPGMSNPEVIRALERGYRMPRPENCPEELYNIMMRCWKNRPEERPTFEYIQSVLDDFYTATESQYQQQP
assay info: phosphorylation enrichment, bacterial display (enrichment ratio); higher = better substrate or ligand; peptides without Tyr show the background
Give the figure by itself; no unit, no explanation.

Check out these entries, answers already filled in.
YFVVEYRDQKP [MUC17_Y4332]
0.589
ARMTNCGLPRY [TSPAN12_Y138_Y138C]
0.453
DDEESYENVPR [FCRL3_Y722_N721S]
0.481
SMGMKYLEEKN [ZAP70_Y451]
0.398
MEIHAYRKLSE [LMNA_Y376_L380S]
0.466
SYPREYGSQEG [RBM10_Y48]
0.477
VHYLVYHHHHH [CACNA1H_Y519_H516Y]
0.632
NSRFTCKLEVK [USH2A_Y3747_Y3747C_YF]
0.508
DMLTLYVNTAA [SMCHD1_Y403_Q400L]
0.557
ALTDNYMFLVI [HAGH_Y61_YF]
0.869

Hck (UniProt P08631) phosphorylation enrichment of DAASNYARGHY [TUBA3E_Y103] is 0.475

Lab entry: Hck (UniProt P08631) assay, sequence LEVETYRRLLD [KRT12_Y429_I426V] , phosphorylation enrichment = 0.511

The reported phosphorylation enrichment value, Hck (UniProt P08631), for CRPPYYHRNCM [HGD_Y334_F329C] reads 0.761

Reported phosphorylation enrichment (Hck (UniProt P08631)) for entry GHPYAYDWISI [BEST1_Y227_L224P] is 1.62

Value sought: phosphorylation enrichment, system Hck (UniProt P08631), item GQSKGYRPKLF [SIPA1L3_Y1376_YF] . Result: 0.395

# lookup: GNKENYGLPQP [BUB1_Y538] on Hck (UniProt P08631), phosphorylation enrichment = 0.342

CVGGFYGGCNE [CTSC_Y352_Y347C] on Hck (UniProt P08631) gives phosphorylation enrichment = 0.838

Short answer on Hck (UniProt P08631) for PESCLYKESWI [IQGAP2_Y630_L635I] , phosphorylation enrichment: 0.872

Readout phosphorylation enrichment for QKNVSYVSRVS [TASOR_Y1043_T1046R] , test system Hck (UniProt P08631), was 0.477

Log: Hck (UniProt P08631), sequence CSRCFYQLTKL [AR_Y858_R856C] , phosphorylation enrichment = 0.362

The reported phosphorylation enrichment value, Hck (UniProt P08631), for FFIMMYTGSSV [DNAJC13_Y1131_N1135S] reads 0.438
